assay: Binding affinity to Influenza A Weybridge(H7N7) virus Matrix protein 2 by spectrophotometry
The entries below are paired with their reported Kd.
The answer is to be given in µM; state only the numeric part.

>>> observed_result("CN1CCCC12C1CC3CC(C1)CC2C3 (configuration not stated)")
2.93
>>> observed_result("NC12CC3CC(CC(C3)C1)C2 [SYMADINE]")
0.32
>>> observed_result("CCC1CCC2(N1)C1CC3CC(C1)CC2C3 (configuration not stated)")
5.58
>>> observed_result("CCCC1(N)C2CC3CC(C2)CC1C3 (configuration not stated)")
8.71
>>> observed_result("CCC1(N)C2CC3CC(C2)CC1C3 (configuration not stated)")
6.7
>>> observed_result("O=C1CCC2(N1)C1CC3CC(C1)CC2C3 (configuration not stated)")
1.49

So what's the measured Kd for this one? NC12CC3CC(C1)CC(F)(C3)C2
4.86
